test system: Pseudomonas aeruginosa; assay: Antibacterial activity against multidrug-resistant Pseudomonas aeruginosa after 24 hrs by broth microdilution method; type: functional
Form field: MIC (one value per entry).

molecule: CCn1cc(C(=O)O)c(=O)c2cc(F)c(N3CCNCC3)cc21
result: 1.8 µg/mL
--
molecule: O=C(Cn1c2ccccc2c2nc3ccccc3nc21)N1N=C(c2cc3ccccc3o2)CC1/C=C/c1ccccc1 (stereo not drawn)
result: 18.5 µg/mL
--
molecule: O=C(Cn1c2ccccc2c2nc3ccccc3nc21)N1N=C(c2cc3ccccc3o2)CC1c1ccc(Cl)cc1 (stereo not drawn)
result: 16.5 µg/mL
--
molecule: COc1ccc(C2CC(c3cc4ccccc4o3)=NN2C(=O)Cn2c3ccccc3c3nc4ccccc4nc32)cc1 (stereo not drawn)
result: 12.5 µg/mL
--
molecule: COc1ccc(C2CC(c3cc4ccccc4o3)=NN2C(=O)Cn2c3ccccc3c3nc4ccccc4nc32)c(O)c1 (stereo not drawn)
result: 18.5 µg/mL
--
molecule: O=C(Cn1c2ccccc2c2nc3ccccc3nc21)N1N=C(c2cc3ccccc3o2)CC1c1ccc(O)cc1 (stereo not drawn)
result: 26 µg/mL
--
molecule: O=C(Cn1c2ccccc2c2nc3ccccc3nc21)N1N=C(c2cc3ccccc3o2)CC1c1cccc([N+](=O)[O-])c1 (stereo not drawn)
result: 5.5 µg/mL

Provide MIC, recorded with Pseudomonas aeruginosa, of CN(C)c1ccc(C2CC(c3cc4ccccc4o3)=NN2C(=O)Cn2c3ccccc3c3nc4ccccc4nc32)cc1 (stereo not drawn)
14 µg/mL
